- Protocol summary: Drug excretion in Sprague-Dawley rat at 10 mg/kg, po
- Type: ADME, organism-based
- Design: dose 10 mg/kg, route oral
- Cond: in vivo, read-out: Ae
Endpoint label: dose excreted (%)
# value in %; strip the unit string

Q) Fill in dose excreted for record "Cl.Clc1cccc(Nc2nc(Cc3ccccc3)nc3c2CCNCC3)c1"
A) 0.03

###

- Target or system: 5-hydroxytryptamine receptor 2A (Homo sapiens, UniProt P28223)
- Sequence (P28223 whole entry): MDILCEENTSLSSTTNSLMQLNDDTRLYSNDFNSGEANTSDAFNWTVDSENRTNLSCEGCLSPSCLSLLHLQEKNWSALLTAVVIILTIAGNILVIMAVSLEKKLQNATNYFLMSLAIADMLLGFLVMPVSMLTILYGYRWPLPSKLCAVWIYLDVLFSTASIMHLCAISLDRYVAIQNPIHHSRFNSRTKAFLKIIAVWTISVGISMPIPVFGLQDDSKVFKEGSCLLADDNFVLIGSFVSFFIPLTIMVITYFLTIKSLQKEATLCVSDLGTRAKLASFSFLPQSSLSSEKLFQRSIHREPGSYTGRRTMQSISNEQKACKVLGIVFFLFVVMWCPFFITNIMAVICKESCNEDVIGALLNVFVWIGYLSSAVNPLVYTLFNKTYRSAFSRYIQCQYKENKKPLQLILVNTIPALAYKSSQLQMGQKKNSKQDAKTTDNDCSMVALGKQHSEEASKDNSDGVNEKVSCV
- Protocol summary: Antagonist activity at serotonin-activated human recombinant 5HT-2A receptor expressed in HEK293 cells assessed as decrease in intracellular calcium level after 5 mins measured for 1 min by fluorescence assay
- Type: functional, cell-based
- Cond: read-out: EC50 (the source's name)
Quick list: log10 IC50 per entry.
Annotation: log10 of IC50, nM basis.

// solved cases for log10 IC50 follow
INSERT INTO assay_data (structure_smiles, target_or_system, endpoint_label, readout_number) VALUES
  ('c1ccc(Cc2nc3c(c(N4CCSCC4)n2)CCNCC3)cc1', '5-hydroxytryptamine receptor 2A (Homo sapiens, UniProt P28223)', 'log10 IC50', 1.98),
  ('CN1CCN(c2nc3c(c(Nc4ccc(F)cc4)n2)CCNCC3)CC1', '5-hydroxytryptamine receptor 2A (Homo sapiens, UniProt P28223)', 'log10 IC50', 2.18),
  ('CNc1nc(N2CCN(C)CC2)nc2c1CCNCC2', '5-hydroxytryptamine receptor 2A (Homo sapiens, UniProt P28223)', 'log10 IC50', 3.08),
  ('COc1cccc(Nc2nc(Cc3ccccc3)nc3c2CCNCC3)c1', '5-hydroxytryptamine receptor 2A (Homo sapiens, UniProt P28223)', 'log10 IC50', 1.89),
  ('Fc1cccc(Nc2nc(Cc3ccccc3)nc3c2CCNCC3)c1', '5-hydroxytryptamine receptor 2A (Homo sapiens, UniProt P28223)', 'log10 IC50', 1.45);

Q) Fill in log10 IC50 for record "CCN(CC)c1nc(N2CCN(C)CC2)nc2c1CCNCC2"
A) 3.46

Q) Fill in log10 IC50 for record "CN1CCN(c2nc3c(c(N4CCSCC4)n2)CCNCC3)CC1"
A) 2.84

###

- Target or system: Alpha-1A adrenergic receptor (Homo sapiens, UniProt P35348)
- Sequence (P35348 whole entry): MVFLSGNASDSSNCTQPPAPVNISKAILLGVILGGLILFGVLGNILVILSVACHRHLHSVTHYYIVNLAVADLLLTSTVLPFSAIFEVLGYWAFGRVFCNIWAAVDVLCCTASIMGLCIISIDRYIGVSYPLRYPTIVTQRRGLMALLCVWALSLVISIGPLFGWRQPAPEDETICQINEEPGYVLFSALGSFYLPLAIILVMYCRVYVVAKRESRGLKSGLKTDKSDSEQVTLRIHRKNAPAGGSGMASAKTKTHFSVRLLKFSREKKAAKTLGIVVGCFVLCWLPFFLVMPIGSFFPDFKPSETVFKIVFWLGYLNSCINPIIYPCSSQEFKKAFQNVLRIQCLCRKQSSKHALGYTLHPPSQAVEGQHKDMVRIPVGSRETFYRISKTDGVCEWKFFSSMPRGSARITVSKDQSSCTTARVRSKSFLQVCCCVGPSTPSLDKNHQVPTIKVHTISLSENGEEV
Endpoint label: IC50

Q) With Alpha-1A adrenergic receptor (Homo sapiens, UniProt P35348) as the test system, provide measured IC50 for this compound: "Cl.Clc1cccc(Nc2nc(Cc3ccccc3)nc3c2CCNCC3)c1"
A) > 10 µM

###

- Protocol summary: AUC (0 to infinity) in Sprague-Dawley rat at 10 mg/kg, iv
- Type: ADME, organism-based
- Design: time infinity, dose 10 mg/kg, route intravenous
- Cond: plasma
Endpoint label: AUC(0-inf) (ng·h/mL)
# value in ng·h/mL; strip the unit string

Q) Fill in AUC(0-inf) for record "Cl.Clc1cccc(Nc2nc(Cc3ccccc3)nc3c2CCNCC3)c1"
A) 1910

###

- Protocol summary: Terminal half life in Sprague-Dawley rat at 10 mg/kg, po
- Format: ADME, organism-based
- Set-up: dose 10 mg/kg, route oral
- Cond: in vivo, read-out: beta t1/2
Endpoint label: half-life (h)
# value in h; strip the unit string

Q) Fill in half-life for record "Cl.Clc1cccc(Nc2nc(Cc3ccccc3)nc3c2CCNCC3)c1"
A) 12.7
